// data source = patent US7084111

# maps each entry to its EC50 (agonist)
- target.desc: mouse melanocortin-1 receptor (mouse, UniProt Q01727 1-315)
- Sequence (Q01727 whole entry): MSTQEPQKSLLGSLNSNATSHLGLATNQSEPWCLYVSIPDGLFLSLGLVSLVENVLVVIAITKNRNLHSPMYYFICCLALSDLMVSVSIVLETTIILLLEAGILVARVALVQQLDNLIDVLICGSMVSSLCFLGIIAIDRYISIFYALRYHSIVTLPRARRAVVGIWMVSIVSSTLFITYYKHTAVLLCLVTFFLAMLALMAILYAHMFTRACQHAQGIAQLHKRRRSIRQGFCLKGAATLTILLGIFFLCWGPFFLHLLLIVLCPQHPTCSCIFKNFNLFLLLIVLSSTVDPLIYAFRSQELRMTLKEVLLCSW
- assay.details: cell-based or functional assay
Bridges are numbered along the chain shown (N, C = ends). Where no end group is shown, it is not given here. [ ]: non-standard residue; d: D form. Nle = CCCC[C@H](N)C(=O)O; Dap = NC[C@H](N)C(=O)O

{"columns": ["binder", "inequality.operator", "EC50 (agonist), nM"],
 "data": [
  ["Ac-SYS[Nle]EHAAAGKPV-NH2 (SMILES CCCC[C@H](NC(=O)[C@H](CO)NC(=O)[C@H](Cc1ccc(O)cc1)NC(=O)[C@H](CO)NC(C)=O)C(=O)N[C@@H](CCC(=O)O)C(=O)N[C@@H](Cc1c[nH]cn1)C(=O)N[C@@H](C)C(=O)N[C@@H](C)C(=O)N[C@@H](C)C(=O)NCC(=O)N[C@@H](CCCCN)C(=O)N1CCC[C@H]1C(=O)N[C@H](C(N)=O)C(C)C) [SEQ ID NO:12 (Ac-Ser-Tyr-Ser-Nle-Glu-His-Ala-Ala-Ala-Gly-Lys-Pro-Val)]", ">", 100000],
  ["YDAXRWNAFXY (Asp-Dpr side chain lactam bridge; Dpr; DPhe; C-terminal amide (amide resin)) [SEQ ID NO:24 (Tyr-c[Asp-Ala-DPhe-Arg-Trp-Asn-Ala-Phe-Dpr]-Tyr)]", "=", 7.2],
  ["YDHXRWNAFXY (Asp-Dpr side chain lactam bridge; Dpr; DBip; C-terminal amide (amide resin)) [SEQ ID NO:35 (Tyr-c[Asp-His-DBip-Arg-Trp-Asn-Ala-Phe-Dpr]-Tyr)]", "=", 3.87],
  ["Ac-[Nle]DHRF[dF]K-NH2 (lactam 2-7; SMILES CCCC[C@H](NC(C)=O)C(=O)N[C@H]1CC(=O)NCCCC[C@@H](C(N)=O)NC(=O)[C@@H](Cc2ccccc2)NC(=O)[C@H](Cc2ccccc2)NC(=O)[C@H](CCCNC(=N)N)NC(=O)[C@H](Cc2c[nH]cn2)NC1=O) [SEQ ID NO:23 (Ac-Nle-c[Asp-His-Arg-Phe-DPhe-Lys])]", "=", 2630],
  ["YDHXPWNAFXY (Asp-Dpr side chain lactam bridge; Dpr; DPhe; C-terminal amide (amide resin)) [SEQ ID NO:36 (Tyr-c[Asp-His-DPhe-Pro-Trp-Asn-Ala-Phe-Dpr]-Tyr)]", "=", 990],
  ["YDHXRXNAFXY (Asp-Dpr side chain lactam bridge; Dpr; DPhe; Tic; C-terminal amide (amide resin)) [SEQ ID NO:42 (Tyr-c[Asp-His-DPhe-Arg-Tic-Asn-Ala-Phe-Dpr]-Tyr)]", "=", 21.6],
  ["Ac-SYS[Nle]YDRFFNAF[Dap]YKPV-NH2 (lactam 6-13; SMILES CCCC[C@H](NC(=O)[C@H](CO)NC(=O)[C@H](Cc1ccc(O)cc1)NC(=O)[C@H](CO)NC(C)=O)C(=O)N[C@@H](Cc1ccc(O)cc1)C(=O)N[C@H]1CC(=O)NC[C@@H](C(=O)N[C@@H](Cc2ccc(O)cc2)C(=O)N[C@@H](CCCCN)C(=O)N2CCC[C@H]2C(=O)N[C@H](C(N)=O)C(C)C)NC(=O)[C@H](Cc2ccccc2)NC(=O)[C@H](C)NC(=O)[C@H](CC(N)=O)NC(=O)[C@H](Cc2ccccc2)NC(=O)[C@H](Cc2ccccc2)NC(=O)[C@H](CCCNC(=N)N)NC1=O) [SEQ ID NO:11 (Ac-Ser-Tyr-Ser-Nle-Tyr-c[Asp-Arg-Phe-Phe-Asn-Ala-Phe-Dpr]-Tyr-Lys-Pro-Val)]", "=", 1960],
  ["YDXXRWNAFXY (Asp-Dpr side chain lactam bridge; Dpr; (rac)Atc; DPhe; C-terminal amide (amide resin)) [SEQ ID NO:30 (Tyr-c[Asp-(rac)Atc-DPhe-Arg-Trp-Asn-Ala-Phe-Dpr]-Tyr)]", "=", 690],
  ["YD[dF]RWNAF[Dap]Y-NH2 (lactam 2-9) [SEQ ID NO:7 (Tyr-c[Asp-DPhe-Arg-Trp-Asn-Ala-Phe-Dpr]-Tyr-NH2)]", "=", 4850],
  ["YDHRFFNAF[Dap]Y-NH2 (lactam 2-10; N-terminus assumed; SMILES C[C@@H]1NC(=O)[C@H](CC(N)=O)NC(=O)[C@H](Cc2ccccc2)NC(=O)[C@H](Cc2ccccc2)NC(=O)[C@H](CCCNC(=N)N)NC(=O)[C@H](Cc2c[nH]cn2)NC(=O)[C@@H](NC(=O)[C@@H](N)Cc2ccc(O)cc2)CC(=O)NC[C@@H](C(=O)N[C@@H](Cc2ccc(O)cc2)C(N)=O)NC(=O)[C@H](Cc2ccccc2)NC1=O) [SEQ ID NO:8 (Tyr-c[Asp-His-Arg-Phe-Phe-Asn-Ala-Phe-Dpr]-Tyr)]", "=", 13300],
  ["YDPXRWNAFXY (Asp-Dpr side chain lactam bridge; Dpr; DPhe; C-terminal amide (amide resin)) [SEQ ID NO:28 (Tyr-c[Asp-Pro-DPhe-Arg-Trp-Asn-Ala-Phe-Dpr]-Tyr)]", "=", 22.1],
  ["YDHXAWNAFXY (Asp-Dpr side chain lactam bridge; Dpr; DPhe; C-terminal amide (amide resin)) [SEQ ID NO:26 (Tyr-c[Asp-His-DPhe-Ala-Trp-Asn-Ala-Phe-Dpr]-Tyr)]", "=", 66.5],
  ["YDHARWNAF[Dap]Y-NH2 (lactam 2-10; N-terminus assumed; SMILES C[C@@H]1NC(=O)[C@H](CC(N)=O)NC(=O)[C@H](Cc2c[nH]c3ccccc23)NC(=O)[C@H](CCCNC(=N)N)NC(=O)[C@H](C)NC(=O)[C@H](Cc2c[nH]cn2)NC(=O)[C@@H](NC(=O)[C@@H](N)Cc2ccc(O)cc2)CC(=O)NC[C@@H](C(=O)N[C@@H](Cc2ccc(O)cc2)C(N)=O)NC(=O)[C@H](Cc2ccccc2)NC1=O) [SEQ ID NO:25 (Tyr-c[Asp-His-Ala-Arg-Trp-Asn-Ala-Phe-Dpr]-Tyr)]", "=", 14000],
  ["YDHXRWNAFXY (Asp-Dpr side chain lactam bridge; Dpr; DNal(2′); C-terminal amide (amide resin)) [SEQ ID NO:33 (Tyr-c[Asp-His-DNal(2′)-Arg-Trp-Asn-Ala-Phe-Dpr]-Tyr)]", "=", 5.56],
  ["YDHXRWNAFXY (Asp-Dpr side chain lactam bridge; Dpr; DNal(1′); C-terminal amide (amide resin)) [SEQ ID NO:34 (Tyr-c[Asp-His-DNal(1′)-Arg-Trp-Asn-Ala-Phe-Dpr]-Tyr)]", "=", 9.2],
  ["YDHXRXNAFXY (Asp-Dpr side chain lactam bridge; Dpr; DPhe; Nal(2′); C-terminal amide (amide resin)) [SEQ ID NO:39 (Tyr-c[Asp-His-DPhe-Arg-Nal(2′)-Asn-Ala-Phe-Dpr]-Tyr)]", "=", 0.53],
  ["YDHXRANAFXY (Asp-Dpr side chain lactam bridge; Dpr; DPhe; C-terminal amide (amide resin)) [SEQ ID NO:27 (Tyr-c[Asp-His-DPhe-Arg-Ala-Asn-Ala-Phe-Dpr]-Tyr)]", "=", 350]
]}
